pIC50: −log10 of the molar value.
Dear all, I have gathered published pIC50 values for UniProt:P80276; the list follows.
QUANTITY: pIC50

Query string: Can you share its pIC50? I mean this molecule: O=C(O)Cc1cc(Cc2nc3c(F)c(F)cc(F)c3s2)cc(C(=O)O)c1
Result string: 8.06

Query string: Record: Cc1ccc2c(c1)CC(CC(=O)O)C(=O)N2Cc1nc2c(F)c(F)cc(F)c2s1 (stereo not shown)
Result string: 7.96

Query string: Could you do the same for O=C(O)CCC(=O)N(Cc1nc2c(Cl)c(Cl)ccc2s1)c1ccc(Cl)cc1 , please?
Result string: 7.89

Query string: O=C(O)CN(C(=O)CCc1nc2c(F)c(F)cc(F)c2s1)c1ccccc1 , same question.
Result string: 8.08

Query string: Follow-up item: Cc1ccc(N(Cc2nc3c(F)c(F)cc(F)c3s2)C(=O)CCC(=O)O)cc1
Result string: 7.89

a: O=C(O)CC1Cc2cc(F)ccc2N(Cc2nc3c(F)c(F)cc(F)c3s2)C1=O (stereo not shown)
b: O=C(O)Cc1cccc(Cc2nc3c(F)c(F)cc(F)c3s2)c1
Query string: Hi! Which is lower in terms of pIC50, the first one a or the second one b ? Select an item and report its label.
Result string: a
(a: 7.92, b: 8.18)
